Here, each record is paired with measured PDE4 [−log IC50, mol/l] data.
- tgt: PDE4 (cAMP-specific), cytosol of human polymorphonuclear leukocytes (PMNL)
- assayComment: Inhibition of PDE isoenzymes: PDE4
- Type: biochemical
- particulars: cAMP as substrate, motapizone (1 μM) present
Counter-ions that a name gives are not always drawn.

Solved cases below.
1) CCOc1cc2c(cc1OC)C(c1ccc(C(=O)N(C(C)C)C(C)CCOC(=O)Cc3ccc(OC)c(OC)c3)cc1)=N[C@@H]1CCN(C)C[C@H]21 (stereo partly shown); 9.6 −log IC50, mol/l
2) CCOc1cc2c(cc1OC)C(c1ccc(C(=O)N(C(C)C)[C@@H](C)COC(=O)c3ccc(OC)c(OC)c3)cc1)=N[C@@H]1CCN(C)C[C@H]21; 9.4 −log IC50, mol/l
3) CCOc1cc2c(cc1OC)C(c1ccc(C(=O)N(C(C)C)C(C)CCOC(=O)c3ccccc3)cc1)=N[C@@H]1CCN(C)C[C@H]21 (stereo partly shown); 9.2 −log IC50, mol/l
4) CCOc1cc2c(cc1OC)C(c1ccc(C(=O)N(C(C)C)[C@@H](C)CO)cc1)=N[C@@H]1CCN(C)C[C@H]21; 8.9 −log IC50, mol/l
5) CCOc1cc2c(cc1OC)C(c1ccc(C(=O)N(C(C)C)[C@H](C)CO)cc1)=N[C@@H]1CCN(C)C[C@H]21; 8.8 −log IC50, mol/l

Inquiry: Identify the measured PDE4 [−log IC50, mol/l] of CCOc1cc2c(cc1OC)C(c1ccc(C(=O)N(C(C)C)C(C)CCOC(=O)Cc3ccccc3)cc1)=N[C@@H]1CCN(C)C[C@H]21 (stereo partly shown) for PDE4 (cAMP-specific), cytosol of human polymorphonuclear leukocytes (PMNL).
Reply text: 9.6 −log IC50, mol/l

Inquiry: // same read-out, input: CCOc1cc2c(cc1OC)C(c1ccc(C(=O)N(C(C)C)[C@@H](C)COC(=O)c3cc(OC)cc(OC)c3)cc1)=N[C@@H]1CCN(C)C[C@H]21
Reply text: 9.3 −log IC50, mol/l

Inquiry: // same read-out, input: CCOc1cc2c(cc1OC)C(c1ccc(C(=O)N(C(C)C)[C@@H](C)COC(=O)c3ccccc3)cc1)=N[C@@H]1CCN(C)C[C@H]21
Reply text: 9 −log IC50, mol/l

Inquiry: // same read-out, input: CCOc1cc2c(cc1OC)C(c1ccc(C(=O)N(C(C)C)[C@@H](C)COC(=O)Cc3ccccc3)cc1)=N[C@@H]1CCN(C)C[C@H]21
Reply text: 9.8 −log IC50, mol/l

Inquiry: // same read-out, input: CCOc1cc2c(cc1OC)C(c1ccc(C(=O)N(C(C)C)[C@@H](C)COC(C)=O)cc1)=N[C@@H]1CCN(C)C[C@H]21 [Compound 5, dihydrochloride]
Reply text: 9.2 −log IC50, mol/l

====

- tgt: PDE3 (cGMP-inhibited), homogenates of human platelets (Homo sapiens, UniProt Q14432)
- Construct: from tissue; host or cells: homogenates of human platelets
- Sequence (Q14432 whole entry): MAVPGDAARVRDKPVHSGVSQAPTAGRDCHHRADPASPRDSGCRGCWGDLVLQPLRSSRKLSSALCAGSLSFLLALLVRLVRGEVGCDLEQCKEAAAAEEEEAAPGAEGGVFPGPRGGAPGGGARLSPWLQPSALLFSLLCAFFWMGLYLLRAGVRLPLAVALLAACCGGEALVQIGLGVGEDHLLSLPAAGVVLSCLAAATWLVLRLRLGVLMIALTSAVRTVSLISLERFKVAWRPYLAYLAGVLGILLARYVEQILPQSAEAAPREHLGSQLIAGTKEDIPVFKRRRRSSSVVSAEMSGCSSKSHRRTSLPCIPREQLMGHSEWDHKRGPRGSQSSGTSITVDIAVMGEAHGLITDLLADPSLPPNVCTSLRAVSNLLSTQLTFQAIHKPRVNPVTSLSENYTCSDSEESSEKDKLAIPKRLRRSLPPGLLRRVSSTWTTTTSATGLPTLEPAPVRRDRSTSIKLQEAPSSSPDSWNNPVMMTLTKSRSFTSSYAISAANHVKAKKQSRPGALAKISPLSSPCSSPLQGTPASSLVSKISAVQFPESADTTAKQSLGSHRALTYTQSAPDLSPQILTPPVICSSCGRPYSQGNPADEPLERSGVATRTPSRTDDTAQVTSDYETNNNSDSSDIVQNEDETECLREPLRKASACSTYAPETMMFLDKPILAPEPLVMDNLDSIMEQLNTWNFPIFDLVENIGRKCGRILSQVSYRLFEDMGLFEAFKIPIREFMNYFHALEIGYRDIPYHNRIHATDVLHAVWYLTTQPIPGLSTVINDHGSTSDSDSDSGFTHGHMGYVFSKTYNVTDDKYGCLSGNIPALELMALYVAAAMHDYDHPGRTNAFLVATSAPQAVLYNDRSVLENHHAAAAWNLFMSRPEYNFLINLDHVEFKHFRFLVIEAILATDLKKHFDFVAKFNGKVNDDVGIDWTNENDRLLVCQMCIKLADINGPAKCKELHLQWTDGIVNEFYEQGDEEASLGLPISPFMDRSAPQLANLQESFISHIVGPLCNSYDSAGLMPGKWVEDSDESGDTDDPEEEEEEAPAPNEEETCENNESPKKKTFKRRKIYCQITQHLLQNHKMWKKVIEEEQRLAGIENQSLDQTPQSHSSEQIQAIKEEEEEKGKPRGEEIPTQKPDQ
- assayComment: Inhibition of PDE isoenzymes: PDE3
- Format: biochemical
- particulars: homogenates of human platelets, cAMP or cGMP as substrate; read-out: PDE3 [−log IC50, mol/l] (converted)
Rule: IC50 below 80 nM gives true. Equal to or above 80 nM gives false.

Past entries and their recorded results:
1) CCOc1cc2c(cc1OC)C(c1ccc(C(=O)N(C(C)C)C(C)CCOC(=O)Cc3ccc(OC)c(OC)c3)cc1)=N[C@@H]1CCN(C)C[C@H]21 (some centres unmarked); true
2) CCOc1cc2c(cc1OC)C(c1ccc(C(=O)N(C(C)C)[C@@H](C)COC(=O)c3ccccc3)cc1)=N[C@@H]1CCN(C)C[C@H]21; true
3) CCOc1cc2c(cc1OC)C(c1ccc(C(=O)N(C(C)C)[C@@H](C)COC(=O)c3ccc(OC)c(OC)c3)cc1)=N[C@@H]1CCN(C)C[C@H]21; true

Inquiry: Consider the compound CCOc1cc2c(cc1OC)C(c1ccc(C(=O)N(C(C)C)[C@@H](C)COC(=O)c3cc(OC)cc(OC)c3)cc1)=N[C@@H]1CCN(C)C[C@H]21 . Is its IC50 strictly less than 80 nM?
Reply text: true

Inquiry: // same read-out, input: CCOc1cc2c(cc1OC)C(c1ccc(C(=O)N(C(C)C)C(C)CCOC(=O)c3ccccc3)cc1)=N[C@@H]1CCN(C)C[C@H]21 (some centres unmarked)
Reply text: false

====

- tgt: PDE3 (cGMP-inhibited), homogenates of human platelets (Homo sapiens)
- Construct: from tissue; host or cells: homogenates of human platelets
- assayComment: Inhibition of PDE isoenzymes: PDE3
- Assay type: biochemical
Here, each record is paired with measured IC50 data.

1. CCOc1cc2c(cc1OC)C(c1ccc(C(=O)N(C(C)C)[C@@H](C)COC(=O)Cc3ccccc3)cc1)=N[C@@H]1CCN(C)C[C@H]21 [Compound 1]; 50.1 nM

Here is the next item to consider.
Inquiry: Look up IC50: CCOc1cc2c(cc1OC)C(c1ccc(C(=O)N(C(C)C)C(C)CCOC(=O)Cc3ccccc3)cc1)=N[C@@H]1CCN(C)C[C@H]21 (some centres unmarked) [Compound 7]
Reply text: 31.6 nM

====

- tgt: PDE3 (cGMP-inhibited), homogenates of human platelets (Homo sapiens, UniProt Q14432)
- Construct: from tissue; host or cells: homogenates of human platelets
- assayComment: Inhibition of PDE isoenzymes: PDE3
- Format: biochemical
- particulars: homogenates of human platelets, cAMP or cGMP as substrate; read-out: PDE3 [−log IC50, mol/l] (converted)
Structures can show the parent of a compound that is named as a salt.
readoutKind: IC50 (nM)
State the answer as a number, implicitly in nM.

1) CCOc1cc2c(cc1OC)C(c1ccc(C(=O)N(C(C)C)[C@H](C)CO)cc1)=N[C@@H]1CCN(C)C[C@H]21; 79.4

Inquiry: Look up IC50: CCOc1cc2c(cc1OC)C(c1ccc(C(=O)N(C(C)C)[C@@H](C)COC(C)=O)cc1)=N[C@@H]1CCN(C)C[C@H]21 [Compound 5, dihydrochloride]
Reply text: 79.4

Inquiry: // same read-out, input: CCOc1cc2c(cc1OC)C(c1ccc(C(=O)N(C(C)C)[C@@H](C)CO)cc1)=N[C@@H]1CCN(C)C[C@H]21
Reply text: 79.4
